# System: Mycobacterium tuberculosis
# PROCEDURE SUMMARY: Growth inhibition of Mycobacterium tuberculosis H37Ra Lehmann and Neumann ATCC 25177 harboring pSMT1 luciferase reporter at 10 uM after 6 days by luminescence based serial dilution method relative to control
# Format: functional
# ASSAY CONTEXT: H37Ra Lehmann and Neumann ATCC 25177, 144 h, read-out: GI
Measured inhibition of growth at 10 µM by item
MEASURED ATTRIBUTE: inhibition of growth at 10 µM (%)

compound=CCCCc1c(O)c2ccccc2n(Cc2ccccc2)c1=O units_text=% measured_result=33.2
compound="CC12CCC(c3c(O)c(-c4ccccc4)c(=O)n(-c4ccccc4)c31)C2(C)C (racemic)" units_text=% measured_result=12.5
compound=COc1ccc2[nH]c(=O)c(-c3ccccc3)c(O)c2c1 units_text=% measured_result=90.8
compound="CCCCc1c(O)c2c(n(-c3ccccc3)c1=O)C1(C)CCC2C1(C)C (racemic)" units_text=% measured_result=7.5
compound=CC(=O)Oc1cc(=O)[nH]c2ccccc12 units_text=% measured_result=35.4
compound=CCc1c(OC(C)=O)c2ccccc2[nH]c1=O units_text=% measured_result=29.4
compound=CCc1c(O)c2c(Cl)ccc(C)c2[nH]c1=O units_text=% measured_result=55.1
compound=CCc1c(OC(C)=O)c2cccc(OC)c2[nH]c1=O units_text=% measured_result=31.2
compound=CCc1c(O)c2c(C)ccc(C)c2[nH]c1=O units_text=% measured_result=86.2
compound=CCCCc1c(O)c2ccccc2n(C)c1=O units_text=% measured_result=23.9
compound=CCc1c(O)c2ccccc2n(-c2ccccc2)c1=O units_text=% measured_result=25.6
compound=CCCCc1c(O)c2ccccc2n(-c2ccccc2)c1=O units_text=% measured_result=47.3

---

# System: Mycobacterium tuberculosis
# PROCEDURE SUMMARY: Growth inhibition of Mycobacterium tuberculosis H37Ra Lehmann and Neumann ATCC 25177 harboring pSMT1 luciferase reporter at 10 uM after 6 days by luminescence based serial dilution method relative to control
# Format: functional
# ASSAY CONTEXT: H37Ra Lehmann and Neumann ATCC 25177, 144 h, read-out: GI
# reported inhibition of growth at 10 µM; entries follow
MEASURED ATTRIBUTE: inhibition of growth at 10 µM (%)

structure_smiles_string=Cn1c(=O)c(-c2ccccc2)c(O)c2ccccc21 units_text=% measured_result=87.2
structure_smiles_string=CCc1c(OC(C)=O)c2cc(F)ccc2[nH]c1=O units_text=% measured_result=44.5
structure_smiles_string=CCc1c(O)c2ccc(O)cc2[nH]c1=O units_text=% measured_result=49.4
structure_smiles_string=CCc1c(OC(C)=O)c2cc(OC)ccc2[nH]c1=O units_text=% measured_result=27.8
structure_smiles_string=O=c1c(-c2ccccc2)c(O)c2ccccc2n1-c1ccccc1 units_text=% measured_result=98.3
structure_smiles_string=CCn1c(=O)c(-c2ccccc2)c(O)c2ccccc21 units_text=% measured_result=8.2
structure_smiles_string=CCCCc1c(O)c2cc(Cl)ccc2[nH]c1=O units_text=% measured_result=64.8
structure_smiles_string=COc1ccc2[nH]c(=O)c(-c3ccccc3)c(OC(C)=O)c2c1 units_text=% measured_result=79.6
structure_smiles_string=O=c1[nH]c2ccc(F)cc2c(O)c1-c1ccccc1 units_text=% measured_result=99.5
structure_smiles_string=CCc1c(OC(C)=O)c2ccc(OC)cc2[nH]c1=O units_text=% measured_result=28.6
structure_smiles_string=O=c1[nH]c2ccc(O)cc2c(O)c1-c1ccccc1 units_text=% measured_result=95.1
structure_smiles_string=O=c1c(-c2ccccc2)c(O)c2ccccc2n1Cc1ccccc1 units_text=% measured_result=71.5

---

# System: Mycobacterium tuberculosis
# PROCEDURE SUMMARY: Growth inhibition of Mycobacterium tuberculosis H37Ra Lehmann and Neumann ATCC 25177 harboring pSMT1 luciferase reporter at 0.1 uM after 6 days by luminescence based serial dilution method relative to control
# Assay type: functional
# ASSAY CONTEXT: H37Ra Lehmann and Neumann ATCC 25177, 144 h, read-out: GI
Assign YES to entries whose inhibition of growth at 0.1 µM meets or exceeds 30%; assign NO to the rest.

molecule=CCc1c(OC(C)=O)c2ccccc2[nH]c1=O label_class=NO
molecule=CCc1c(O)c2ccc(OC)cc2[nH]c1=O label_class=NO
molecule=CCCCc1c(O)c2ccccc2n(-c2ccccc2)c1=O label_class=YES
molecule=CCCCc1c(O)c2cc(Cl)ccc2[nH]c1=O label_class=NO
molecule=CC(=O)Oc1c(-c2ccccc2)c(=O)[nH]c2ccc(F)cc12 label_class=YES
molecule=CCc1c(O)c2cc(F)ccc2[nH]c1=O label_class=YES
molecule="CC12CCC(c3c(O)c(-c4ccccc4)c(=O)n(-c4ccccc4)c31)C2(C)C (racemic)" label_class=NO
molecule=O=c1[nH]c2ccc(F)cc2c(O)c1-c1ccccc1 label_class=YES
molecule=Oc1nc2ccccc2c(O)c1Cc1ccccc1 label_class=NO
molecule=Cc1c(O)c2ccccc2n(-c2ccccc2)c1=O label_class=YES
molecule=Cc1c(O)c2ccccc2n(C)c1=O label_class=NO
molecule=CCc1c(OC(C)=O)c2cc(OC)ccc2[nH]c1=O label_class=NO
molecule=CC(C)c1c(O)c2ccccc2[nH]c1=O label_class=YES
molecule=O=c1[nH]c2cc(O)ccc2c(O)c1-c1ccccc1 label_class=YES
molecule=CCc1c(OC(C)=O)c2cc(F)ccc2[nH]c1=O label_class=NO
molecule=COc1ccc2c(O)c(-c3ccccc3)c(=O)[nH]c2c1 label_class=YES
molecule=Cc1ccc2[nH]c(=O)c(-c3ccccc3)c(O)c2c1 label_class=YES
molecule=CCc1c(O)c2ccc(O)cc2[nH]c1=O label_class=NO
molecule=CCCCc1c(O)c2ccccc2n(Cc2ccccc2)c1=O label_class=NO
molecule=O=c1c(Cc2ccccc2)c(O)c2ccccc2n1Cc1ccccc1 label_class=NO
molecule=CCc1c(O)c2cccc(OC)c2[nH]c1=O label_class=YES
molecule=CCCCc1c(O)c2ccccc2n(C)c1=O label_class=NO
molecule=O=c1c(-c2ccccc2)c(O)c2ccccc2n1Cc1ccccc1 label_class=YES
molecule="CCCCc1c(O)c2c(n(-c3ccccc3)c1=O)C1(C)CCC2C1(C)C (racemic)" label_class=NO
molecule=O=c1c(Cc2ccccc2)c(O)c2ccccc2n1-c1ccccc1 label_class=NO
molecule=CCCCc1c(O)c2cc(OC)cc(OC)c2[nH]c1=O label_class=NO
molecule=COc1ccc2[nH]c(=O)c(-c3ccccc3)c(O)c2c1 label_class=NO
molecule=CC(=O)Oc1c(C)c(=O)[nH]c2ccccc12 label_class=NO
molecule=COc1ccc2[nH]c(=O)c(-c3ccccc3)c(OC(C)=O)c2c1 label_class=NO
molecule=Cc1cc2[nH]c(=O)c(-c3ccccc3)c(O)c2cc1C label_class=YES
molecule=CCc1c(O)c2c(Cl)ccc(C)c2[nH]c1=O label_class=YES
molecule=CCn1c(=O)c(-c2ccccc2)c(O)c2ccccc21 label_class=NO
molecule=CCc1c(O)c2c(C)ccc(C)c2[nH]c1=O label_class=NO
molecule=CCc1c(OC(C)=O)c2ccc(OC)cc2[nH]c1=O label_class=NO
molecule=CCc1c(O)c2ccccc2[nH]c1=O label_class=YES
molecule=CC(=O)Oc1cc(=O)[nH]c2ccccc12 label_class=NO
molecule=CCCc1c(O)c2cc(F)ccc2[nH]c1=O label_class=NO
molecule=CCc1c(O)c2cc(OC)ccc2[nH]c1=O label_class=NO
molecule=O=c1[nH]c2c(O)cccc2c(O)c1-c1ccccc1 label_class=YES
molecule=CCc1c(O)c2ccccc2n(-c2ccccc2)c1=O label_class=NO
molecule=O=c1[nH]c2ccc(O)cc2c(O)c1-c1ccccc1 label_class=YES
molecule=COc1ccc2c(OC(C)=O)c(-c3ccccc3)c(=O)[nH]c2c1 label_class=NO
molecule=CCc1c(OC(C)=O)c2cccc(OC)c2[nH]c1=O label_class=NO
molecule=CC(=O)Oc1c(-c2ccccc2)c(=O)[nH]c2ccccc12 label_class=NO
molecule=CCCc1c(O)c2ccccc2n(-c2ccccc2)c1=O label_class=NO
molecule=Cc1c(O)c2ccccc2[nH]c1=O label_class=YES
molecule=COc1cccc2c(OC(C)=O)c(-c3ccccc3)c(=O)[nH]c12 label_class=NO
molecule=COc1cccc2c(O)c(-c3ccccc3)c(O)nc12 label_class=YES
molecule=Oc1nc2ccccc2c(O)c1-c1ccccc1 label_class=YES

---

# Test system: Mycobacterium tuberculosis
# PROCEDURE SUMMARY: Growth inhibition of Mycobacterium tuberculosis H37Ra Lehmann and Neumann ATCC 25177 harboring pSMT1 luciferase reporter at 10 uM after 6 days by luminescence based serial dilution method relative to control
# Assay type: functional
# ASSAY CONTEXT: H37Ra Lehmann and Neumann ATCC 25177, 144 h, read-out: GI
Classification field: True = inhibition of growth at 10 µM at or over 80%; False = inhibition of growth at 10 µM under 80%.

structure_smiles_string=Cc1cc2[nH]c(=O)c(-c3ccccc3)c(O)c2cc1C label_class=True
structure_smiles_string=Oc1nc2ccccc2c(O)c1Cc1ccccc1 label_class=False
structure_smiles_string=O=c1c(Cc2ccccc2)c(O)c2ccccc2n1Cc1ccccc1 label_class=False
structure_smiles_string=Cc1c(O)c2ccccc2n(C)c1=O label_class=True
structure_smiles_string=CCc1c(O)c2cccc(OC)c2[nH]c1=O label_class=False
structure_smiles_string=CC(C)c1c(O)c2ccccc2[nH]c1=O label_class=False
structure_smiles_string=Oc1nc2ccccc2c(O)c1-c1ccccc1 label_class=True
structure_smiles_string=CCc1c(O)c2cc(OC)ccc2[nH]c1=O label_class=False
structure_smiles_string=CCc1c(O)c2ccccc2[nH]c1=O label_class=True
structure_smiles_string=CC(=O)Oc1c(C)c(=O)[nH]c2ccccc12 label_class=False
structure_smiles_string=O=c1[nH]c2cc(O)ccc2c(O)c1-c1ccccc1 label_class=True
structure_smiles_string=Cc1c(O)c2ccccc2n(-c2ccccc2)c1=O label_class=False
structure_smiles_string=COc1cccc2c(O)c(-c3ccccc3)c(O)nc12 label_class=True
structure_smiles_string=CCc1c(O)c2cc(F)ccc2[nH]c1=O label_class=False
structure_smiles_string=CCCCc1c(O)c2cc(OC)cc(OC)c2[nH]c1=O label_class=False
structure_smiles_string=Cc1c(O)c2ccccc2[nH]c1=O label_class=False
structure_smiles_string=CC(=O)Oc1c(-c2ccccc2)c(=O)[nH]c2ccccc12 label_class=False
structure_smiles_string=COc1ccc2c(O)c(-c3ccccc3)c(=O)[nH]c2c1 label_class=True
structure_smiles_string=CC(=O)Oc1c(-c2ccccc2)c(=O)[nH]c2ccc(F)cc12 label_class=True
structure_smiles_string=O=c1c(Cc2ccccc2)c(O)c2ccccc2n1-c1ccccc1 label_class=False
structure_smiles_string=CCc1c(O)c2ccc(OC)cc2[nH]c1=O label_class=False
structure_smiles_string=CCCc1c(O)c2ccccc2n(-c2ccccc2)c1=O label_class=False
structure_smiles_string=CCCCc1c(O)c2c(Cl)ccc(C)c2[nH]c1=O label_class=False
structure_smiles_string=O=c1[nH]c2c(O)cccc2c(O)c1-c1ccccc1 label_class=True
structure_smiles_string=Cc1ccc2[nH]c(=O)c(-c3ccccc3)c(O)c2c1 label_class=True
structure_smiles_string=COc1cccc2c(OC(C)=O)c(-c3ccccc3)c(=O)[nH]c12 label_class=False
